Assayed target: homomeric α1 GlyR (Homo sapiens, UniProt P23415)
Construct: expressed in transfected cells; host or cells: CHO cells
Sequence (P23415 29-449 isoform P23415-2 limits assumed): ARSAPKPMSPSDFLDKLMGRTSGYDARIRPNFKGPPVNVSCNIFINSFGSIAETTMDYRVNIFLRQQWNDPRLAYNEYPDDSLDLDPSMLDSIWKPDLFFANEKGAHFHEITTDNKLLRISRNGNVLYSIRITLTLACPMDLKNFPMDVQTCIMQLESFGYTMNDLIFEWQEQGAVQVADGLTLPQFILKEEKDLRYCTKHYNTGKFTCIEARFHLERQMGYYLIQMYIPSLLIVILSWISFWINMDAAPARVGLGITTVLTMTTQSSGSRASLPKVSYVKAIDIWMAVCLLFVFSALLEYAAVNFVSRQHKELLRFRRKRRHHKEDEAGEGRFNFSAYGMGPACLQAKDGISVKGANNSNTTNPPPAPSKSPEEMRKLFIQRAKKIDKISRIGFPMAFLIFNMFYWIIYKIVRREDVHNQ
Assay comment: Whole-cell patch-clamp of glycine-induced currents, α1 GlyR expressed in CHO cells
Format: cell-based
Test context: −80 mV; glycine 30 μM; ramp protocol; mean ± SEM; read-out: IC50 of NFA
Endpoint label: IC50 (µM)
The answer is to be given in µM; state only the numeric part.

Query: If you can, please state the reported IC50 value of O=C(O)c1cccnc1Nc1cccc(C(F)(F)F)c1 .
Reply: 315

----------
Assayed target: homomeric α1 GlyR (Homo sapiens)
Construct: expressed in transfected cells; host or cells: CHO cells
Assay comment: Whole-cell patch-clamp of glycine-induced currents, α1 GlyR expressed in CHO cells
Type: cell-based
Test context: −80 mV; glycine 100 μM; representative; read-out: NFA IC50 (representative IC50 curve)
Endpoint label: pIC50
// pIC50 is dimensionless: -log10 of concentration (M)

Query: If you can, please state the reported pIC50 value of O=C(O)c1cccnc1Nc1cccc(C(F)(F)F)c1 .
Reply: 3.68

The reported measurements were obtained from paper PMC5432571.
